- test.target: recombinant HMG1 produced in E. coli as a calmodulin binding protein (CBP) fusion (human)
- Sequence (P09429 whole entry, the tested form may be a part): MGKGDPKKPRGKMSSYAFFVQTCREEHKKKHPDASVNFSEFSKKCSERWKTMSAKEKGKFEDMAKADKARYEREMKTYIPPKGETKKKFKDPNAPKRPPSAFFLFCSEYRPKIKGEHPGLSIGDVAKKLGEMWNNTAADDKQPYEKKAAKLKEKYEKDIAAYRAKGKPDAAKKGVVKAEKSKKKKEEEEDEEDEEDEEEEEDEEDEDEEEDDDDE
- assay.remarks: cell-based or functional assay
# IC50 IL-1β per entry
Give just the numeric value; µg/mL need not be written.

Example entries and their recorded answers appear below.
1) human anti-HMG1 antibody G12 (antibody, IgG1, V domains shown, full length IgG1 made from a human Fab phage clone) VH: EVQLLESGGGLVQPGGSLRLSCAASGFTFSYYMMTWVRQAPGKGLEWVSSISPSGGYTIYADSAKGRFTISRDNSKNTLYLQMNSLRAEDTAVYYCARALSTGSFWDYWGQGTLVTVSS VL: DIQMTQSPGTLSLSPGERATLSCRASESLTSTYVAWYQHKPGQAPRLLIHGGSTRATGIPVRFSGSGSGTDFTLTIATLEPEDFAVYYCQQYGSSPYTFGQGTKLEIK | 5.91
2) human anti-HMG1 antibody G2 (antibody, IgG1, V domains shown, full length IgG1 made from a human Fab phage clone) VH: EVQLLESGGGLVQPGGSLRLSCAASGFTFSWYKMQWVRQAPGKGLEWVSGISPSGGSTAYADSVKGRFTISRDNSKNTLYLQMNSLRAEDTAVYYCAKMGLFNTGNSYVDYWGQGTLVTVSS VL: AQSELTQPPSVSEAPGQRVTISCSGSTSNIGNNAVIWYQQLPGKAPKLLIYYDDLLPSGVSDRFSGSKSGTSGSLAISGLQSEDEADYYCASWDDNLNGPLFGGGTKLTVL | 5.03
3) human anti-HMG1 antibody S16 (antibody, IgG1, V domains shown, full length IgG1 made from a human Fab phage clone; also called ATCC PTA-6259) VH: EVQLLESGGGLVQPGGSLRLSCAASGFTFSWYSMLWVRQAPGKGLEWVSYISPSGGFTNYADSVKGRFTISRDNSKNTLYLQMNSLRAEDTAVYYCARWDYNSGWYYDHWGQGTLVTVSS VL: DIQMTQSPDTLSLSPGERATLSCRASQSVNSRNLAWYQQKPGQAPRLLIYGASTRATGIPDRFSGSVSGTEFTLTISSLQPDDFATYYCQQYNSYFTFGQGTKLEIK | 6.05
4) human anti-HMG1 antibody G9 (antibody, IgG1, V domains shown, full length IgG1 made from a human Fab phage clone) VH: EVQLLESGGGLVQPGGSLRLSCAASGFTFSSYDMFWVRQAPGKGLEWVSRISPSGGYTYYADSVKGRFTISRDNSKNTLYLQMNSLRAEDTAVYYCARLRYFDSRGYAFDIWGQGTMVTVSS VL: DIQMTQSPGTLSLSPGERATLSCRASQSVRSSYLAWYQQKPGQAPRLLIYGASTRATGIPDRFSGSGSGTDFTLTISRLEPEDFAVYYCQQYGTSRWTFGQGTKVEIK | 0.211
5) human anti-HMG1 antibody S10 (antibody, IgG1, V domains shown, full length IgG1 made from a human Fab phage clone) VH: EVQLLESGGGLVQPGGSLRLSCAASGFTFSWYDMWWVRQAPGKGLEWVSWIVPSGGITAYADSVKGRFTISRDNSKNTLYLQMNSLRAEDTATYYCARGNYGPSPFDYWGQGTLVTVSS VL: DIQMTQSPGTLSLSPGERATLSCRATQSVRKNFLAWYQQKPGQAPRLLIYDASSRATGIPDRFSGSGSGTDFTLTISRLEPEDFAVYYCQQYGNSPIIFGQGTRLEIK | 2.59

Alright, here's another binder for you.
Query: Quick one: IC50 IL-1β for human anti-HMG1 antibody S14 (antibody, IgG1, V domains shown, full length IgG1 made from a human Fab phage clone) VH: EVQLLESGGGLVQPGGSLRLSCAASGFTFSWYETGWVRQAPGKGLEWVSGISPSGGYTQYADSVKGRFTISRDNSKNTLYLQMNSLRAEDTAVYYCARSGVGATKIFDYWGQGTLVTVSS VL: DIQMTQSPSSLSASVGDRVTIICRANERINTYLNWYQQKPGKAPKLLISGTSSLESGVPSRFSGSGSGTEFTLSISSLQPEDFASYYCQQSYSSPYTFGQGTNLEIR ?
Result: 0.0578
